TARGET OF ASSAY: ATP-dependent translocase ABCB1 (Homo sapiens, UniProt P08183)
Sequence (P08183 whole entry): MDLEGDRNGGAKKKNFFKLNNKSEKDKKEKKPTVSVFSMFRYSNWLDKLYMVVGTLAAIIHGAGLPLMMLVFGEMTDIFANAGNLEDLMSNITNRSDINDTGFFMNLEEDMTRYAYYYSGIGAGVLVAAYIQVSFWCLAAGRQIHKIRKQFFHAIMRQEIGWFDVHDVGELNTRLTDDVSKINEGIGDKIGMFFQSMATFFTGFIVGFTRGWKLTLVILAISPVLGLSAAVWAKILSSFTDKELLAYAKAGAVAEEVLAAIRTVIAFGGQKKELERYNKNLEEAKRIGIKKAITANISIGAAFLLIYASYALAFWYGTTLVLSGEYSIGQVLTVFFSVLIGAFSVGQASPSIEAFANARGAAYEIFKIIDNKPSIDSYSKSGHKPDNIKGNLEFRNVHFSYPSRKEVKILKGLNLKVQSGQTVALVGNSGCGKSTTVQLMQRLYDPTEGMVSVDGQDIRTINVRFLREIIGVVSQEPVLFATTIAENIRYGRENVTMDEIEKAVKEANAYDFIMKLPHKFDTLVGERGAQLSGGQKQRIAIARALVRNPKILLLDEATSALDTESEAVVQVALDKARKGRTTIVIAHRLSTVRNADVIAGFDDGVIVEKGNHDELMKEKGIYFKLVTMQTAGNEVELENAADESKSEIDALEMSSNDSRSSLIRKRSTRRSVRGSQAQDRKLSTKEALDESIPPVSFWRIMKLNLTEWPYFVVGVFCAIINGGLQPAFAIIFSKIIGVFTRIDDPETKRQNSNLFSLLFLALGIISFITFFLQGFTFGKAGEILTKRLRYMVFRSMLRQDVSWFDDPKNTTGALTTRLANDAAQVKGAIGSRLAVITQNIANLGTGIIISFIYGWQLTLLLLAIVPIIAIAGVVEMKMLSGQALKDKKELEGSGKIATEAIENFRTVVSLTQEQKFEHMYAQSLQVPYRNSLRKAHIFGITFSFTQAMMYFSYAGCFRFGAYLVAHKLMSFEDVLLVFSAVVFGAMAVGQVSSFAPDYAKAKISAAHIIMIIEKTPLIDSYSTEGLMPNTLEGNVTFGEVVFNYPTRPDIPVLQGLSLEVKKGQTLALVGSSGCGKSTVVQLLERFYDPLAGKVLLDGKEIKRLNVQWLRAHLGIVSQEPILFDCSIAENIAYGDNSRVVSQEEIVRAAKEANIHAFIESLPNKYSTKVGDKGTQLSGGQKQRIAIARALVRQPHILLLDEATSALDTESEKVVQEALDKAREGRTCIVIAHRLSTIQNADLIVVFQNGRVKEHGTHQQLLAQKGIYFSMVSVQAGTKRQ
ASSAY OVERVIEW: Inhibition of MDR1-mediated efflux-pump activity in mouse L5178Y cells expressing human MDR1 assessed as forward scattered light at 20 uM preincubated for 10 mins followed by rhodamine-123 addition measured after 20 mins by flow cytometry (reference value: 455.7 to 509.9)
Assay type: cell-based
# reported Activity; entries follow

Below are worked cases with known answers.
CC(C)=C[C@H](O)C[C@@H](C)[C@H]1CC[C@@]2(C)[C@@H]3C(O[C@H]4O[C@@H](CO)[C@H](O)[C@@H](O)[C@@H]4O)C=C4[C@@H](CC[C@H](O)C4(C)C)[C@]3(C)CC[C@]12C (stereo partly drawn) : 573
CC(=O)C[C@@H](C)[C@H]1CC[C@@]2(C)[C@@H]3C(=O)C=C4[C@@H](CC[C@H](O)[C@]4(C)CO)[C@]3(C)CC[C@]12C [BALSAMINOL D] : 434.2

Now for the compound whose Activity we want.
The reported Activity of the compound COc1ccc(C(=O)O[C@H]2CC[C@@H]3C(=C[C@H](OC)[C@@H]4[C@@]3(C)CC[C@]3(C)[C@@H]([C@H](C)C[C@H](C=C(C)C)OC(=O)c5ccc(OC)cc5)CC[C@@]43C)C2(C)C)cc1 [KARAVOATE N] was 548.9

====

# reported Flu intensity; entries follow
TARGET OF ASSAY: ATP-dependent translocase ABCB1 (Homo sapiens, UniProt P08183)
ASSAY OVERVIEW: Inhibition of MDR1-mediated efflux-pump activity in mouse L5178Y cells expressing human MDR1 assessed as mean fluorescence intensity at 20 uM preincubated for 10 mins followed by rhodamine-123 addition measured after 20 mins by flow cytometry (reference value: 7.1 to 18.6)
Format: cell-based
Give only the figure.

Below are worked cases with known answers.
CO[C@H]1C=C2[C@@H](CC[C@H](O)C2(C)C)[C@]2(C)CC[C@]3(C)[C@@H]([C@H](C)C[C@H](C=C(C)C)OC(=O)c4ccc([N+](=O)[O-])cc4)CC[C@@]3(C)[C@H]12 [KARAVOATE I] : 25.9
C[C@H](C/C=C/C(C)(C)O)[C@H]1CC[C@@]2(C)[C@@H]3[C@@H](O)C=C4[C@@H](CC[C@H](O)C4(C)C)[C@]3(C)C[C@@H](O)[C@]12C : 38.2
CC(C)=C[C@@H](C[C@@H](C)[C@H]1CC[C@@]2(C)[C@@H]3[C@@H](OC(=O)c4ccccc4)C=C4[C@@H](CC[C@H](OC(=O)c5ccccc5)C4(C)C)[C@]3(C)CC[C@]12C)OC(=O)c1ccccc1 : 7.1

The reported Flu intensity of the compound `CC(C)=C[C@H](O)C[C@@H](C)[C@H]1CC[C@@]2(C)[C@@H]3C=C[C@@]45OC[C@]3(CC[C@]12C)[C@@H]4CC[C@H](O)C5(C)C` was 743.8

The reported Flu intensity of the compound `CO[C@H]1C=C2[C@@H](CC[C@H](OC(=O)c3ccccc3)C2(C)C)[C@]2(C)CC[C@]3(C)[C@@H]([C@H](C)C/C=C/C(C)(C)O)CC[C@@]3(C)[C@H]12` was 140

The reported Flu intensity of the compound `CO[C@H]1C=C2[C@@H](CC[C@H](O)C2(C)C)[C@]2(C)C[C@@H](O)[C@]3(C)[C@@H]([C@H](C)C/C=C/C(C)(C)O)CC[C@@]3(C)[C@H]12` was 391.6

The reported Flu intensity of the compound CO[C@H]1C=C2[C@@H](CC[C@H](OC(=O)/C=C/c3ccccc3)C2(C)C)[C@]2(C)CC[C@]3(C)[C@@H]([C@H](C)C[C@H](C=C(C)C)OC(=O)/C=C/c4ccccc4)CC[C@@]3(C)[C@H]12 [KARAVOATE P] was 18.1

The reported Flu intensity of the compound CO[C@H]1C=C2[C@@H](CC[C@H](OC(=O)c3ccc([N+](=O)[O-])cc3)C2(C)C)[C@]2(C)CC[C@]3(C)[C@@H]([C@H](C)C[C@H](C=C(C)C)OC(=O)c4ccc([N+](=O)[O-])cc4)CC[C@@]3(C)[C@H]12 [KARAVOATE J] was 14.3

The reported Flu intensity of the compound `C=C(C)[C@@H](O)[C@H](O)C[C@@H](C)[C@H]1CC[C@@]2(C)[C@@H]3[C@@H](O)C=C4[C@@H](CC[C@H](O)[C@]4(C)CO)[C@]3(C)CC[C@]12C` was 38.2

Cited source: ChEMBL document CHEMBL3860050
